Emax (%) listing for selected binders.
Target: Met (HGF receptor) (UniProt P08581 25-1390, limits assumed)
Sequence (P08581 25-1390 limits assumed): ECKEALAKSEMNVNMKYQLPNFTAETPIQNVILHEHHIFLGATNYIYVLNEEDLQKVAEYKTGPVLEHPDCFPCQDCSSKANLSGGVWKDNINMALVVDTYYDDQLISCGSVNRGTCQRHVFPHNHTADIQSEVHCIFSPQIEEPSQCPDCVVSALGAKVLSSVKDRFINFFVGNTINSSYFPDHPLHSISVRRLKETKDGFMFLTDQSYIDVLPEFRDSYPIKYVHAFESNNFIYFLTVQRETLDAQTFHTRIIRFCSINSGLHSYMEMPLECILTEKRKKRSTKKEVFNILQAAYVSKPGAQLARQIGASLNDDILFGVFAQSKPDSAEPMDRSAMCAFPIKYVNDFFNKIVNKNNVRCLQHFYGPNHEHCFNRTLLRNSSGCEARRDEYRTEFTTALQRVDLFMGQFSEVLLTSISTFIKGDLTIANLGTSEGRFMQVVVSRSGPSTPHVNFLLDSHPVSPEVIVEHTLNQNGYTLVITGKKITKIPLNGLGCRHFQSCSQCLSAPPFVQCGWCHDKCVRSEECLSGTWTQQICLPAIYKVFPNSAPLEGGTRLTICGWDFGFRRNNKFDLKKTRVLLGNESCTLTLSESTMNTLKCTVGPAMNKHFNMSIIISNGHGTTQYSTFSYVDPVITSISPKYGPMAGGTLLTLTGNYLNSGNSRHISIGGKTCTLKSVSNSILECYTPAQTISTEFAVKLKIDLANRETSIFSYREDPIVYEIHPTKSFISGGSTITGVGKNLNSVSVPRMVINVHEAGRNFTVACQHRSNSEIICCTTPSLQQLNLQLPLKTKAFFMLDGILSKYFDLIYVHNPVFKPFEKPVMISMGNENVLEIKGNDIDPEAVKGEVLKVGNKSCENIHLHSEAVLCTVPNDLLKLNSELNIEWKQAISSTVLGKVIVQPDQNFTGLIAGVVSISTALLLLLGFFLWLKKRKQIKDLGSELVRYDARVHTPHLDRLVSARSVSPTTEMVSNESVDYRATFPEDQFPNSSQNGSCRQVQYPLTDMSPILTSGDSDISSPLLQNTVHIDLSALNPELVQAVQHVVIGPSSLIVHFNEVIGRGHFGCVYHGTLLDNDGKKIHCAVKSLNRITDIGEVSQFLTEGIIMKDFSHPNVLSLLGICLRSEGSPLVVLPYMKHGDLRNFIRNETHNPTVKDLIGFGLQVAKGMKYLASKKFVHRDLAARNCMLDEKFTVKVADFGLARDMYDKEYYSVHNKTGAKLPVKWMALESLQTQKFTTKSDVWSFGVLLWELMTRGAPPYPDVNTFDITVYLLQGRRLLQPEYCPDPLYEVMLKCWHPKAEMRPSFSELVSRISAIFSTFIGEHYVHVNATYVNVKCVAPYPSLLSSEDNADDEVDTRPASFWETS
Assay: cell-based or functional assay
Positions of bridges follow the written chain, without caps; N, C: chain ends. No end group written: not given here.
Please give a number only; it is taken to be in %.

Lab note: measured Emax (%) of AETCRQFNRRTHEVWNLDCGAAPAAPAPGCRQFNRRTHEVWNLDC (disulfide 4-19, 30-45) [AET-aMD4dY-PAS8] was 56.4

Lab note: measured Emax (%) of AET-aMD4dY-GS22 (disulfide 4-19, 44-59) peptide: AETCRQFNRRTHEVWNLDCGGGGGSGGGGSGGGGSGGGGSGGGCRQFNRRTHEVWNLDC was 32.3

Lab note: measured Emax (%) of AET-aMD4dY-PAS200 (two disulfide bonds in the molecule) peptide: AETCRQFNRRTHEVWNLDCGAAPAAPAPAAPAAPAPAAPAAPAPAAPAAPAPAAPAAPAPAAPAAPAPAAPAAPAPAAPAAPAPAAPAAPAPAAPAAPAPAAPAAPAPAAPAAPAPAAPAAPAPAAPAAPAPAAPAAPAPAAPAAPAPAAPAAPAPAAPAAPAPAAPAAPAPAAPAAPAPAAPAAPAPAAPAAPAPAAPAAPAPAAPAAPAPAAPAAPAPGCRQFNRRTHEVWNLDC was 20.4
